Experiment: Hemolytic assay
Format: cell-based
Conditions: human, fresh human erythrocytes (4% v/v), human erythrocytes, 200 µg/ml, 1 h, mean (SD); read-out: Hmax (%): percentage of hemolysis at 200 µg/ml
observationType: hemolysis at 1 h, 200 µg/ml (%)
Numeric only. Scale: %

Recorded hemolysis at 1 h, 200 µg/ml (molecule NCC[C@H](O)C(=O)N[C@@H]1C[C@H](N)[C@@H](O[C@H]2O[C@H](CN)[C@@H](O)[C@H](O)[C@H]2O)[C@H](O)[C@H]1O[C@H]1O[C@H](CO)[C@@H](O)[C@H](N)[C@H]1O [Amikacin, amikacin, reference compound] ): 0

---

System: S. aureus SH1000
Experiment: microbe, parasite or virus in culture
Format: cell-based, Staphylococcus aureus
Settings: 0 mM NaCl, caMHB, 24 h; read-out: MIC
Peptide text beside a SMILES is read from it.
observationType: MIC

Here is how some compounds turned out for MIC.
C[C@H](NC(=O)[C@H](CCCCN)NC(=O)CNC(=O)[C@@H](N)CCCNC(=N)N)C(=O)N[C@@H](CCCCN)C(=O)N[C@@H](CS)C(=O)N[C@@H](CS)C(=O)N[C@@H](CCCCN)C(=O)NCC(=O)N[C@H](C(=O)N[C@@H](CCCCN)C(=O)N[C@@H](CS)C(=O)N[C@@H](CS)C(=O)N[C@@H](CCCCN)C(=O)N[C@@H](CCCCN)C(=O)N1CCC[C@H]1C(=O)O)[C@@H](C)O [DD12, RGKAKCCKGT KCCKKP] (H-RGKAKCCKGTKCCKKP-OH; N-terminus and C-terminus assumed) | > 115 µM
N=C(N)NCCC[C@H](NC(=O)CNC(=O)[C@@H](N)CCCNC(=N)N)C(=O)N[C@@H](CCCCN)C(=O)N[C@@H](CS)C(=O)N[C@@H](CS)C(=O)N[C@@H](CCCNC(=N)N)C(=O)N[C@@H](CCCNC(=N)N)C(=O)N[C@@H](CCCCN)C(=O)N[C@@H](CCCCN)C(=O)N[C@@H](CCCCN)C(=O)N[C@@H](CS)C(=O)N[C@@H](CS)C(=O)N[C@@H](CCCCN)C(=O)N[C@@H](CCCCN)C(=O)N1CCC[C@H]1C(=O)O [DD32, RGRKCCRRKK KCCKKP] (H-RGRKCCRRKKKCCKKP-OH; N-terminus and C-terminus assumed) | > 101 µM
NCCCC[C@H](NC(=O)[C@H](CS)NC(=O)[C@H](CS)NC(=O)[C@@H](N)CCCCN)C(=O)N[C@@H](CCCCN)C(=O)N1CCC[C@H]1C(=O)O [BD2-6, KCCKKP] (H-KCCKKP-OH; N-terminus and C-terminus assumed) | > 283.3 µM

Now look at this entry.
Recorded MIC (compound N=C(N)NCCC[C@H](NC(=O)CNC(=O)[C@@H](N)CCCNC(=N)N)C(=O)N[C@@H](CCCCN)C(=O)N[C@@H](CS)C(=O)N[C@@H](CS)C(=O)N[C@@H](CCCNC(=N)N)C(=O)N[C@@H](CCCNC(=N)N)C(=O)N[C@@H](CCCCN)C(=O)N[C@@H](CCCCN)C(=O)O [BD3-10, RGRKCCRRKK] (H-RGRKCCRRKK-OH; N-terminus and C-terminus assumed) ): > 154.9 µM

---

Tested on: MRSA-OS
Experiment: microbe, parasite or virus in culture
Type: cell-based, Staphylococcus aureus
Conditions: -OS, 24 h
Peptide text beside a SMILES is read from it.
observationType: MIC

Recorded MIC (molecule NCCCC[C@H](NC(=O)[C@H](CS)NC(=O)[C@H](CS)NC(=O)[C@@H](N)CCCCN)C(=O)N[C@@H](CCCCN)C(=O)N1CCC[C@H]1C(=O)O [BD2-6, KCCKKP] (H-KCCKKP-OH; N-terminus and C-terminus assumed) ): > 200 µg/mL

---

Test system: MRSA-OS
Assay: microbe, parasite or virus in culture
Format: cell-based, Staphylococcus aureus
Details: 0 mM NaCl, caMHB, 24 h; read-out: MIC
Peptide text beside a SMILES is read from it.
observationType: MIC

N=C(N)NCCC[C@H](NC(=O)CNC(=O)[C@@H](N)CCCNC(=N)N)C(=O)N[C@@H](CCCCN)C(=O)N[C@@H](CS)C(=O)N[C@@H](CS)C(=O)N[C@@H](CCCNC(=N)N)C(=O)N[C@@H](CCCNC(=N)N)C(=O)N[C@@H](CCCCN)C(=O)N[C@@H](CCCCN)C(=O)N[C@@H](CCCCN)C(=O)N[C@@H](CS)C(=O)N[C@@H](CS)C(=O)N[C@@H](CCCCN)C(=O)N[C@@H](CCCCN)C(=O)N1CCC[C@H]1C(=O)O [DD32, RGRKCCRRKK KCCKKP] (H-RGRKCCRRKKKCCKKP-OH; N-terminus and C-terminus assumed) | > 101 µM
N=C(N)NCCC[C@H](NC(=O)CNC(=O)[C@@H](N)CCCNC(=N)N)C(=O)N[C@@H](CCCCN)C(=O)N[C@@H](CS)C(=O)N[C@@H](CS)C(=O)N[C@@H](CCCNC(=N)N)C(=O)N[C@@H](CCCNC(=N)N)C(=O)N[C@@H](CCCCN)C(=O)N[C@@H](CCCCN)C(=O)O [BD3-10, RGRKCCRRKK] (H-RGRKCCRRKK-OH; N-terminus and C-terminus assumed) | > 154.9 µM
C[C@H](NC(=O)[C@H](CCCCN)NC(=O)CNC(=O)[C@@H](N)CCCNC(=N)N)C(=O)N[C@@H](CCCCN)C(=O)N[C@@H](CS)C(=O)N[C@@H](CS)C(=O)N[C@@H](CCCCN)C(=O)NCC(=O)N[C@H](C(=O)N[C@@H](CCCCN)C(=O)N[C@@H](CS)C(=O)N[C@@H](CS)C(=O)N[C@@H](CCCCN)C(=O)N[C@@H](CCCCN)C(=O)N1CCC[C@H]1C(=O)O)[C@@H](C)O [DD12, RGKAKCCKGT KCCKKP] (H-RGKAKCCKGTKCCKKP-OH; N-terminus and C-terminus assumed) | > 115 µM

Now look at this entry.
Recorded MIC (molecule NCCCC[C@H](NC(=O)[C@H](CS)NC(=O)[C@H](CS)NC(=O)[C@@H](N)CCCCN)C(=O)N[C@@H](CCCCN)C(=O)N1CCC[C@H]1C(=O)O [BD2-6, KCCKKP] (H-KCCKKP-OH; N-terminus and C-terminus assumed) ): > 283.3 µM

---

Experiment: Hemolytic assay
Type: cell-based
Conditions: human, Hmax (%): percentage of hemolysis at 200 µg/ml
observationType: hemolysis at 1 h, 200 µg/ml (%)
Numeric only. Scale: %

Recorded hemolysis at 1 h, 200 µg/ml (compound C[C@H]1COc2c(N3CCN(C)CC3)c(F)cc3c(=O)c(C(=O)O)cn1c23 [Levofloxacin, levofloxacin, reference compound] ): 0

---

System: MRSA-OS
Test: microbe, parasite or virus in culture
Type: cell-based, Staphylococcus aureus
Conditions: -OS, 24 h
Experimental: A range of Gram-positive and Gram-negative laboratory- and clinical-strain bacteria were used for the experiments. […] In vitro antimicrobial efficacy of the antibiotics and designed HDPs was determined using an established MIC assay with broth microdilution method approved by the Clinical and Laboratory Standards Institute (CLSI)[64]. […]
Peptide text beside a SMILES is read from it.
Items are presented alongside their recorded MIC.

Here is how some compounds turned out for MIC.
C[C@H](NC(=O)[C@H](CCCCN)NC(=O)CNC(=O)[C@@H](N)CCCNC(=N)N)C(=O)N[C@@H](CCCCN)C(=O)N[C@@H](CS)C(=O)N[C@@H](CS)C(=O)N[C@@H](CCCCN)C(=O)NCC(=O)N[C@H](C(=O)N[C@@H](CCCCN)C(=O)N[C@@H](CS)C(=O)N[C@@H](CS)C(=O)N[C@@H](CCCCN)C(=O)N[C@@H](CCCCN)C(=O)N1CCC[C@H]1C(=O)O)[C@@H](C)O [DD12, RGKAKCCKGT KCCKKP] (H-RGKAKCCKGTKCCKKP-OH; N-terminus and C-terminus assumed) | > 200 µg/mL
CC[C@H](C)[C@H](NC(=O)[C@H](CCCNC(=N)N)NC(=O)[C@H](CCC(N)=O)NC(=O)[C@@H](NC(=O)[C@@H](NC(=O)[C@H](CCCNC(=N)N)NC(=O)[C@@H](N)CCCCN)[C@@H](C)CC)C(C)C)C(=O)N[C@@H](CCCCN)C(=O)N[C@@H](CC(=O)O)C(=O)N[C@@H](Cc1ccccc1)C(=O)N[C@@H](CC(C)C)C(=O)N[C@@H](CCCNC(=N)N)C(=O)O [Ca12, KRIVQRIKDF LR] (H-KRIVQRIKDFLR-OH; N-terminus and C-terminus assumed) | > 200 µg/mL

Now look at this entry.
Recorded MIC (compound N=C(N)NCCC[C@H](NC(=O)CNC(=O)[C@@H](N)CCCNC(=N)N)C(=O)N[C@@H](CCCCN)C(=O)N[C@@H](CS)C(=O)N[C@@H](CS)C(=O)N[C@@H](CCCNC(=N)N)C(=O)N[C@@H](CCCNC(=N)N)C(=O)N[C@@H](CCCCN)C(=O)N[C@@H](CCCCN)C(=O)O [BD3-10, RGRKCCRRKK] (H-RGRKCCRRKK-OH; N-terminus and C-terminus assumed) ): > 200 µg/mL
